# composite z-score annotations
Assay: probe aCHRDL2 binding to arrayed compounds – biochemical, biotinylated probe, 635/667 nm fluorescence, primary screen (AID 1100)
Details: small-molecule microarray, higher = more signal
Returns: the value as a bare number; no unit string appended.

The examples below pair each entry with its known result.
1. COc1ccc([Si](C)(C)[C@@H]2[C@@H](CCO)O[C@]3(C(=O)N(Cc4ccccc4)c4ccc(NC(=O)[C@H](C)O)cc43)[C@H]2C)cc1	-0.147
2. C=C[C@H](C)[C@H](OC(=O)Nc1ccc(SC)cc1)c1ccc(OCCO)cc1	0.916

Task: Any idea what composite z-score was measured for C=CCN1Cc2ccccc2[C@@H]2OC(c3ccc(OCCCO)cc3)=N[C@]2(CC=C)C1=O ?
Output: 1.07
